Hello, the source for this data is paper PMC10364322, in case you need it.

- Tested on: hiPSC-CMs (iCell-Cardiomyocytes^2)
- protocol notes: MEA impedance (cytotoxicity readout) in hiPSC-CMs
- stated conditions: 3 µM; 24h
test readout: Imp (impedance), % change from baseline
Report the figure along with its unit, number first.

# compound, measured target, result
measured = [
    ("N=C(N)c1ccc(OCCCCCOc2ccc(C(=N)N)cc2)cc1", "hiPSC-CMs (iCell-Cardiomyocytes^2)", "-4±2%"),
    ("CC(=O)Oc1ccccc1C(=O)O", "hiPSC-CMs (iCell-Cardiomyocytes^2)", "-9±4%"),
    ("O=C(O)COCCN1CCN(C(c2ccccc2)c2ccc(Cl)cc2)CC1 (stereo not shown)", "hiPSC-CMs (iCell-Cardiomyocytes^2)", "-7±4%"),
]

Provide Imp (impedance), % change from baseline values for the following items, in order.
1. COc1nc(N)nc2c1ncn2[C@@H]1O[C@H](COP(=O)(N[C@@H](C)C(=O)OCC(C)(C)C)Oc2cccc3ccccc23)[C@@H](O)[C@@]1(C)O (stereo partly shown)
2. C#Cc1cccc(Nc2ncnc3cc(OCCOC)c(OCCOC)cc23)c1
3. COc1cccc2c1C(=O)c1c(O)c3c(c(O)c1C2=O)C[C@@](O)(C(=O)CO)C[C@@H]3O[C@H]1C[C@H](N)[C@H](O)[C@H](C)O1
4. C[C@H](CS)C(=O)N1CCC[C@H]1C(=O)O
5. CC(C)(Sc1cc(C(C)(C)C)c(O)c(C(C)(C)C)c1)Sc1cc(C(C)(C)C)c(O)c(C(C)(C)C)c1
6. COc1cc2c(Nc3ccc(Br)cc3F)ncnc2cc1OCC1CCN(C)CC1

[reply]
1. 1±2%
2. -6±2%
3. -56±5 %
4. -6±3%
5. -7±4%
6. -16±3%

[ask] Which Imp (impedance), % change from baseline value belongs to CC1(C)S[C@@H]2[C@H](NC(=O)[C@H](N)c3ccc(O)cc3)C(=O)N2[C@H]1C(=O)O ?
[reply] 7±6%

----------
- Tested on: hiPSC-CMs (iCell-Cardiomyocytes^2)
- stated conditions: 0.3 µM, 2h
For each entry below, report its FPDc (field-potential duration corrected by beat-rate), % change from baseline value.
Answers are plain numbers, in %.

Below: 5 compounds and their reported FPDc (field-potential duration corrected by beat-rate), % change from baseline.
# compound, display unit, numeric value
records = [
    ("Cc1cn(-c2cc(NC(=O)c3ccc(C)c(Nc4nccc(-c5cccnc5)n4)c3)cc(C(F)(F)F)c2)cn1", "%", 20.8),
    ("COc1cccc2c1C(=O)c1c(O)c3c(c(O)c1C2=O)C[C@@](O)(C(=O)CO)C[C@@H]3O[C@H]1C[C@H](N)[C@H](O)[C@H](C)O1", "%", 2.8),
    ("COc1cc2c(Nc3ccc(Br)cc3F)ncnc2cc1OCC1CCN(C)CC1", "%", 28.5),
    ("O=C(O)COCCN1CCN(C(c2ccccc2)c2ccc(Cl)cc2)CC1 (stereo not drawn)", "%", 3.8),
    ("N=C(N)c1ccc(OCCCCCOc2ccc(C(=N)N)cc2)cc1", "%", 8),
]

I would be grateful if you could provide FPDc (field-potential duration corrected by beat-rate), % change from baseline for each of the following entries.
1. CCN(CC)CCNC(=O)c1c(C)[nH]c(/C=C2\C(=O)Nc3ccc(F)cc32)c1C
2. COc1nc(N)nc2c1ncn2[C@@H]1O[C@H](COP(=O)(N[C@@H](C)C(=O)OCC(C)(C)C)Oc2cccc3ccccc23)[C@@H](O)[C@@]1(C)O (stereo partly drawn)
3. C#Cc1cccc(Nc2ncnc3cc(OCCOC)c(OCCOC)cc23)c1
4. CC(C)(Sc1cc(C(C)(C)C)c(O)c(C(C)(C)C)c1)Sc1cc(C(C)(C)C)c(O)c(C(C)(C)C)c1

[reply]
[25.4, 2.1, 1.6, 2.6]
